# systemUnderTest: FER^WT (Homo sapiens)
# Sequence (P16591 448-820): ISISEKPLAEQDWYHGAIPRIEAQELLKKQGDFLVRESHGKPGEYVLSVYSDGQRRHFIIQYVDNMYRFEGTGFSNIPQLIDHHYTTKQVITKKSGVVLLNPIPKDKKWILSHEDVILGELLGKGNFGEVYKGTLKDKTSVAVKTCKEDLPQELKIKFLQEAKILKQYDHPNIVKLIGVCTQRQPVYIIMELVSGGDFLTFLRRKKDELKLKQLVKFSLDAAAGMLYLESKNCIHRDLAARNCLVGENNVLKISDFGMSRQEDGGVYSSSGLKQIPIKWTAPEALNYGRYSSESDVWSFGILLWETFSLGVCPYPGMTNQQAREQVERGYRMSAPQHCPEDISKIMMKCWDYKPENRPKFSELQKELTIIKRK
# measurementProtocol: In vitro TR-FRET kinase assay
# conditionsUsed: log[inhibitor] (M) -5.52288
measuredMetric: Residual activity (%) WT Mean
Numbers only, in %.

These recorded examples may help you get a feel for the data.
• C=CC(=O)Nc1ccccc1Nc1nc(Nc2ccccc2OC)ncc1Cl = 6.417
• COc1ccccc1Nc1ncc(Cl)c(Nc2ccccc2S(=O)(=O)C(C)C)n1 = 0.1492

Could you report Residual activity (%) WT Mean for every entry in the following list?
1. C#CCOc1ccc(Nc2ncc(Cl)c(Nc3ccccc3NC(=O)C=C)n2)c(OC)c1
2. CCC(=O)Nc1ccccc1Nc1nc(Nc2ccccc2OC)ncc1Cl

Resp:
3.792
11.558

Attribution: paper PMC7316778
